target: T1, human TIM3, full length, on cells (human, UniProt Q8TDQ0 22-301); test: FACS, human CD14+ monocytes, donor1, 10 µg/ml
T1 construct: CHO-K1 cells were transfected with a plasmid for full-length human Tim3; other cells carry endogenous TIM3; also called huTIM-3; CHO-Tim3
value kind: Specific Binding [MFI]
Please provide the amount together with its unit, number first.

anti-TIM3 antibody Tim3_0030 (antibody, V domains shown, Mouse monoclonal from hybridoma) VH: QIQLVQSGPELKKPGETVKISCKASGYPFSEYSIHWVKQAPGKGLKWMVYVNTETGQPIVGDDFRGRFVLSLETSASTAYLQINNLKNEDTATYFCGGGGYPAYWGQGTLVTVSA VL: DVLMTQTPLSLPVSLGDQASISCRSSRSIVHSSGNTYLEWYLQKPGQSPKLLIYKVSNRFSGVPDRFSGSGSGTDFTLNISRVEAEDLGVYYCFQDSHVPFTFGTGTKLEIK : 1410 MFI
anti-TIM3 antibody Tim3_0038 (antibody, V domains shown, Mouse monoclonal from hybridoma) VH: EVQLQQSGAEPLKPGASVKLTCTTSGFNIKDYYIHWVKQRSDQGLEWIGRIDPEDGELIYAPKFQDKATITVDTSSNIAYLQLNSLTSEDTAVYYCSRDHGYVGWFAYWGQGTLVTVSA VL: NVVMTQSPKSMIMSVGQRVTLNCKASENVDTYVSWYQQKPEQSPKLLIYGASNRYTGVPDRFTGSRSATDFTLTISSVQAEDLAVYYCGQSYSYPWTFGGGTKLEFR : 1640 MFI

(Q) Find the recorded Specific Binding [MFI] belonging to anti-TIM3 antibody Tim3_0026 (antibody, V domains shown, Mouse monoclonal from hybridoma) VH: QIQLVQSGPELKKPGETVKISCKASGYTFTDYSMHWVKQAPGRGLKWMGYINTETYEPTFGADFKGRFAFSLDTSATTAYLQINSLKTEDTATFFCGGGGYPAYWGQGTVVIVSA VL: DVLMTQTPLSLPVSLGDQASISCRSSRTILHSSGNTYLEWYLQKPGQSPKLLIYKVSNRFSGVPDRFSGSGSGTDFTLNISRVEAEDLGVYYCFQDSHVPFTFGTGTKLEIK and report it.
(A) 1660 MFI

The origin of these recorded values is patent US20180072804A1.
